tested on: 439559-082-T-J2-PDC spheroid viability; test: Anticancer human tumor 439559-082-T-J2-PDC patient-derived colon adenocarcinoma cell line growth inhibition [POLQ]; conditions: second compound 0.1 µM; first compound 0.0316 µM; stronger effect = lower value; spheroids with HUVEC and MSC;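 also: spheroids exposed to compounds for seven days before readout; 100% = DMSO vehicle control viability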
# viability, T/C per record follows
Give your result in % as a bare value.

A selection of reference data follows.
• COc1cccc2c1C(=O)c1c(O)c3c(c(O)c1C2=O)CC(O)(C(=O)CO)CC3OC1CC(N)C(O)C(C)O1 (stereo unspecified) + Nc1ccc(C#CCN(C(=O)Cc2ncc(C(F)(F)F)cc2C(F)(F)F)c2ccc(F)cc2)nn1 = 99.9
• Cn1ncnc1[C@H]1c2n[nH]c(=O)c3cc(F)cc(c23)N[C@@H]1c1ccc(F)cc1 + Nc1ccc(C#CCN(C(=O)Cc2ncc(C(F)(F)F)cc2C(F)(F)F)c2ccc(F)cc2)nn1 = 93.1
• O=C(c1cc(Cc2n[nH]c(=O)c3ccccc23)ccc1F)N1CCN(C(=O)C2CC2)CC1 + Nc1ccc(C#CCN(C(=O)Cc2ncc(C(F)(F)F)cc2C(F)(F)F)c2ccc(F)cc2)nn1 = 93.1
• CC[C@@]1(O)C(=O)OCc2c1cc1n(c2=O)Cc2cc3c(CN(C)C)c(O)ccc3nc2-1 + Nc1ccc(C#CCN(C(=O)Cc2ncc(C(F)(F)F)cc2C(F)(F)F)c2ccc(F)cc2)nn1 = 85.9
• COc1ccc([C@@H](O)c2cc(-c3ncnc4cc(N5CCOCC5)ccc34)c(F)cc2Cl)nn1 + COC1C(OC(N)=O)C(O)C(Oc2ccc3c(O)c(NC(=O)c4ccc(O)c(CC=C(C)C)c4)c(=O)oc3c2C)OC1(C)C = 109

Query :: Could you tell me which viability, T/C is on file for CNCc1ccc(-c2[nH]c3cc(F)cc4c3c2CCNC4=O)cc1 + COC1C(OC(N)=O)C(O)C(Oc2ccc3c(O)c(NC(=O)c4ccc(O)c(CC=C(C)C)c4)c(=O)oc3c2C)OC1(C)C ?
Result :: 101

Query :: Could you tell me which viability, T/C is on file for CC(C)n1c(=O)n(C)c2cnc3cc(F)c(-c4ccc(OCCCN5CCCCC5)nc4)cc3c21 + Nc1ccc(C#CCN(C(=O)Cc2ncc(C(F)(F)F)cc2C(F)(F)F)c2ccc(F)cc2)nn1 ?
Result :: 106

Query :: Could you tell me which viability, T/C is on file for COc1cccc(OCCCN)c1-c1cc(Nc2cnc(C#N)cn2)n[nH]1 + Nc1ccc(C#CCN(C(=O)Cc2ncc(C(F)(F)F)cc2C(F)(F)F)c2ccc(F)cc2)nn1 ?
Result :: 79.9

Query :: Could you tell me which viability, T/C is on file for CC1COCCN1c1cc(-c2ccnn2C)c2ccnc(-c3ccn[nH]3)c2n1 (stereo unspecified) + COC1C(OC(N)=O)C(O)C(Oc2ccc3c(O)c(NC(=O)c4ccc(O)c(CC=C(C)C)c4)c(=O)oc3c2C)OC1(C)C ?
Result :: 82.8

Query :: Could you tell me which viability, T/C is on file for COc1ccc([C@@H](O)c2cc(-c3ncnc4cc(N5CCOCC5)ccc34)c(F)cc2Cl)nn1 + Cc1cccc(N(C)C(=O)C2C(O)CCN2c2nc(C)cc(C(F)(F)F)c2C#N)c1 ?
Result :: 101

Query :: Could you tell me which viability, T/C is on file for CCCS(=O)(=O)Nc1ccc(F)c(C(=O)c2c[nH]c3ncc(-c4ccc(Cl)cc4)cc23)c1F + Cc1cccc(N(C)C(=O)C2C(O)CCN2c2nc(C)cc(C(F)(F)F)c2C#N)c1 ?
Result :: 100

Hey, just so you know, these numbers are from PubChem BioAssay AID1963841.
